Source: patent US8975417B2

Target: His-Brd4(44-477) (Homo sapiens (Human), UniProt O60885)
Rule: measured IC50 below 0.1 µM gets MET; anything equal to or greater than 0.1 µM gets NOT MET.

{"MOLECULE": "Cc1cc(N2C(=O)c3nn(C)cc3[C@H]2c2ccc(Cl)cc2)cn(C)c1=O [Example 16]", "DISCRETE LABEL": "MET"}
{"MOLECULE": "Cc1nn(C2CC2)c2c1[C@H](c1ccc(Cl)cc1)N(c1cc(C)c3nnc(C)n3n1)C2=O [Example 123]", "DISCRETE LABEL": "NOT MET"}
{"MOLECULE": "CCc1nn(CCOCC(F)(F)F)c2c1C(c1ccc(Cl)cc1)N(c1cc(OC)c3nnc(C)n3c1)C2=O (centres unmarked) [Example 108]", "DISCRETE LABEL": "NOT MET"}
{"MOLECULE": "Cc1c2c(nn1C)C(=O)N(c1cc(F)c(=O)n(C)c1)C2c1ccc(Cl)cc1 (centres unmarked) [Example 31]", "DISCRETE LABEL": "NOT MET"}
{"MOLECULE": "Cc1nn(C2CC2)c2c1C(c1ccc(Cl)cc1)N(c1cn(C)c(=O)c3[nH]ccc13)C2=O (centres unmarked) [Example 160]", "DISCRETE LABEL": "MET"}
{"MOLECULE": "Cc1cc(N2C(=O)c3nn(C4CC4)cc3C2c2ccc(Cl)cc2)cn(C)c1=O (centres unmarked) [Example 39]", "DISCRETE LABEL": "NOT MET"}
{"MOLECULE": "Cc1nn(-c2cncn2C)c2c1C(c1ccc(Cl)cc1)N(c1cc(C)c(=O)n(C)c1)C2=O (centres unmarked) [Example 83]", "DISCRETE LABEL": "MET"}
{"MOLECULE": "CCn1nc(C)c2c1C(=O)N(c1cc(C)c3nnc(C)n3c1)[C@@H]2c1ccc(F)cc1F [Example 191]", "DISCRETE LABEL": "MET"}
